Test: in vitro
Details: human, hela cells, % viability
Observation type: viability at 28.5 h, 10 µM (%)
Unit % implied. Number only.

# count of solved cases: 3
1. CN(CCc1ccccn1)Cc1cc(Br)cs1 [CBK021314]: 92.8
2. Cc1cc(=O)c2ccccc2n1CC(=O)N1CCC2(CCO2)CC1 [CBK306809]: 88.5
3. COc1cccc2sc(NC(=O)CCCN(C)C)nc12 [CBK149261]: 93

Request: State, in one line, measured viability at 28.5 h, 10 µM of CCC(CN(C)C)C(=O)c1ccccc1 (stereo not drawn) [CBK015409C]
Result: 95.1

Request: Could you please provide reported viability at 28.5 h, 10 µM for O=C(NCCF)c1cn2cc(-c3cccs3)n(CC3CC3)c(=O)c2n1 [CBK307367] ? Thanks!
Result: 96.8

Request: # return recorded viability at 28.5 h, 10 µM for entry CCNc1cncc(-c2ccc(C(N)=O)cc2)n1 [CBK065414]
Result: 96.2

All values here come from paper PMC12040169.
